# TEST_SYSTEM: cGMP-specific 3',5'-cyclic phosphodiesterase (Homo sapiens, UniProt O76074)
pIC50: −log10 of the molar value.
ENDPOINT: pIC50

A selection of reference data follows.
CCCOc1ccc(-c2ccc(C)s2)cc1-c1nc2c(c(C)nn2C)c(=O)[nH]1
8.40
CCCOc1ccc(NC(C)=O)cc1-c1nc2c(c(C)nn2CC)c(=O)[nH]1
8.70

P = CCCOc1ccccc1-c1nc2onc(C)c2c(=O)[nH]1
Q = CCCOc1ccc(-c2csc(-c3ccccc3)n2)cc1-c1nc2c(c(C)nn2C)c(=O)[nH]1
R = CCCOc1ccccc1-c1nc2c(c(C)nn2CC(F)(F)F)c(=O)[nH]1
-- ask Arrange these 3 molecules in increasing order of pIC50. Use the labels to give the requested order.
-- reply P, R, Q
(P: 7.00, R: 8.15, Q: 8.60)

From: ChEMBL document CHEMBL1129550
